This collection of values is drawn from paper PMC4336329.

Molecular target: human ether-à-go-go-related gene (hERG) potassium channel (human, UniProt Q12809);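 note: peak tail current of the secondary pulse compared with the same well before compound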
Sequence (Q12809 whole entry, looked up): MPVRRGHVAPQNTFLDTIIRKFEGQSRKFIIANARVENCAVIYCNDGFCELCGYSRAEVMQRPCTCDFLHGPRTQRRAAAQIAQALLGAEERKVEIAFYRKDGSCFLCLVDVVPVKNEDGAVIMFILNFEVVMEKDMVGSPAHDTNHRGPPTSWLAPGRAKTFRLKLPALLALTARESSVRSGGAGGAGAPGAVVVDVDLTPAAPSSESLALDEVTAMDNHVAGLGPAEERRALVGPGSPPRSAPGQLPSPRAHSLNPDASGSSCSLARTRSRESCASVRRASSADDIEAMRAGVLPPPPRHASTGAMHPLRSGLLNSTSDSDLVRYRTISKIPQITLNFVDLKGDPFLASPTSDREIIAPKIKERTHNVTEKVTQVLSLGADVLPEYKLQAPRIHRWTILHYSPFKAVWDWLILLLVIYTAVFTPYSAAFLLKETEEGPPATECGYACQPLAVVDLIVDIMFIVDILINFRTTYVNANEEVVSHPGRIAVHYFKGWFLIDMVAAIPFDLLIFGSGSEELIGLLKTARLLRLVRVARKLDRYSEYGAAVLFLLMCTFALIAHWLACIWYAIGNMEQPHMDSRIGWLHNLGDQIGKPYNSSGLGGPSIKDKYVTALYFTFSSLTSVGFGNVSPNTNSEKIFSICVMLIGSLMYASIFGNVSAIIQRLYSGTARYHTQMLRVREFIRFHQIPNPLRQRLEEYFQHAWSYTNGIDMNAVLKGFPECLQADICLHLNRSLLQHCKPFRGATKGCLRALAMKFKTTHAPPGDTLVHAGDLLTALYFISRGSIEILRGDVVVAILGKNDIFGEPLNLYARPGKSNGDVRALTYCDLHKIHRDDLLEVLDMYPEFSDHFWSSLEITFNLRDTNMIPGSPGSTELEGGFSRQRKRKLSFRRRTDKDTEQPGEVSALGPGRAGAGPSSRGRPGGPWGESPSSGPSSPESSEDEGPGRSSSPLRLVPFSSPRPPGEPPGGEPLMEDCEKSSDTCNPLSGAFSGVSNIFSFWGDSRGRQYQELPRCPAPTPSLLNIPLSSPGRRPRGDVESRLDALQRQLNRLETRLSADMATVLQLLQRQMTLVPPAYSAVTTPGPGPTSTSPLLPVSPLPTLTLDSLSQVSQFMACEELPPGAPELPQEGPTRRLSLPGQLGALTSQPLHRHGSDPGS
Experiment: primary screen, population patch clamp on CHO cells stably expressing hERG; higher = less effect of the substance
Protocol: Briefly, Chinese hamster ovary (CHO) cells stably expressing the hERG channel were dislodged from tissue culture flasks and dispensed into PPC plates. […] During the recording, background leak currents were estimated by a 100 ms step to -80 mV from an initial holding potential of -70 mV and subtracted from the subsequent current measurement. The campaign was conducted in two phases using slight differences in recording protocol. […]
About 14,000 (4.5%) of roughly 310,000 compounds showed an effect of 50% or more. The effect is printed as a negative number. The sample holds strong results, similar compounds and a random draw of the others, so the mix is not that of the screen.
Entry flag: yes (1) if hERG current change (%, negative = inhibition) at 10uM reaches -30%; no (0) if it does not.

For orientation, consider the following solved cases.
Cc1ccc(C(=O)N2CCCC(CCC(=O)N3CCN(c4ccccn4)CC3)C2)cc1C (centres unmarked)	no (0)
O=C(Nc1ccc([N+](=O)[O-])cc1Cl)c1cc(Cl)ccc1O	yes (1)
Cc1cccc(C(=O)N2CCCC(CCC(=O)N3CCN(c4ccccn4)CC3)C2)c1 (centres unmarked)	no (0)
CCc1cc(C(=O)N2CCCC(CCC(=O)N3CCN(c4ccccn4)CC3)C2)no1 (centres unmarked)	yes (1)

Turning now to a further record.
Task item: Decide: hERG current change (%, negative = inhibition) at 10uM of O=C(CCC1CCCN(c2ncccn2)C1)N1CCN(c2ccccn2)CC1 (centres unmarked) >= -30%?
Reply: yes (1)

====

molecular target: human ether-à-go-go-related gene (hERG) potassium channel (human, UniProt Q12809); assay: primary screen, population patch clamp on CHO cells stably expressing hERG; higher = less effect of the substance;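 note: peak tail current of the secondary pulse compared with the same well before compound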
Among all 310,000 compounds or so, about 14,000 (4.5%) showed an effect of 50% or more. Effects have a minus sign here. The entries come from a sample that favours strong results as a whole.
Parameter: hERG current change (%, negative = inhibition) at 10uM (%)
The figure you give is taken to be in %; do not add the unit.

Cc1ccc(C)n1CCN1CCN(C(=O)CC#N)CC1	16.3
CCCCC(=O)NC1(C(F)(F)F)NC(=O)N(C)C1=O (stereo not shown)	11.3

hERG current change (%, negative = inhibition) at 10uM measured on COCCOc1ccc(C(F)(F)F)cc1NC(=O)c1ccc(C)cc1 = -0.151

hERG current change (%, negative = inhibition) at 10uM measured on O=C(O)c1cc(-c2ccccc2)n(-c2ccc(Cl)cc2Cl)n1 = 21.5

hERG current change (%, negative = inhibition) at 10uM measured on O=C(Nc1ccccc1)N(Cc1ccc(Cl)cc1)CC(O)C(F)(F)F (stereo not shown) = 8.33

hERG current change (%, negative = inhibition) at 10uM measured on COc1ccc(OC)c(S(=O)(=O)Nc2c(F)cccc2F)c1 = 16

hERG current change (%, negative = inhibition) at 10uM measured on COc1ccc(C2=NN(CN3C(=O)C(=O)c4ccccc43)C(c3ccc(OC)cc3)C2)cc1 (stereo not shown) = 9.84

hERG current change (%, negative = inhibition) at 10uM measured on CCCc1nn(C)c2c1C(c1ccncc1)C(C#N)=C(N)O2 (stereo not shown) = 15.4

hERG current change (%, negative = inhibition) at 10uM measured on O=C(NCC(=O)N(c1ccc(Cl)cc1)C(C(=O)NC1CCCC1)c1ccncc1)c1ccco1 (stereo not shown) = -5.29

hERG current change (%, negative = inhibition) at 10uM measured on O=C1NCC(COc2cccc3ccccc23)O1 (stereo not shown) = 13.3
